Reported mean relative fluorescence intensity at 10 µM peptide values are given for each entry in this list.
- target-or-system: T1, HLA-A*0201 molecule expressed on human T2 cells (human)
- T1 construct: surface HLA-A2 detected with anti-HLA-A2-PE (clone REA517); also called HLA-A2
- run-description: T2 cell HLA-A*0201 binding assay, anti-HLA-A2-PE flow cytometry
- Method: T2 cells (5·10⁴ cells per well) are incubated with decreasing concentrations of peptides from 100 μM to 0.1 μM (4 points: 100 μM, 10 μM, 1 μM, 0.1 μM) in serum-free medium (TexMacs) supplemented with 100 ng/μl of 2 Microglobulin at 37° C. for 16 hours. Cells are then washed two times and marked with the anti-HLA-A2 antibody coupled to PE (clone REA517, Miltenyi). […]
value-type: mean relative fluorescence intensity at 10 µM peptide

1) AQIGIVAVV [OR51E2-H1] = 32 % of HIV pol reference peptide
2) AVIGIVAAV (also called ENT190_B1) [OR51E2-B1] = 59.3 % of HIV pol reference peptide
3) TLDQKLFMV (also called ENT180_B1) [ANKRD30A-B3] = 120 % of HIV pol reference peptide
4) AINPELLQL (also called ENT207-H) [KIF2C-H1] = 9.5 % of HIV pol reference peptide
